# target.system: Thyrotropin-releasing hormone receptor (Homo sapiens) (UniProt P34981)
# Sequence (P34981 whole entry, looked up): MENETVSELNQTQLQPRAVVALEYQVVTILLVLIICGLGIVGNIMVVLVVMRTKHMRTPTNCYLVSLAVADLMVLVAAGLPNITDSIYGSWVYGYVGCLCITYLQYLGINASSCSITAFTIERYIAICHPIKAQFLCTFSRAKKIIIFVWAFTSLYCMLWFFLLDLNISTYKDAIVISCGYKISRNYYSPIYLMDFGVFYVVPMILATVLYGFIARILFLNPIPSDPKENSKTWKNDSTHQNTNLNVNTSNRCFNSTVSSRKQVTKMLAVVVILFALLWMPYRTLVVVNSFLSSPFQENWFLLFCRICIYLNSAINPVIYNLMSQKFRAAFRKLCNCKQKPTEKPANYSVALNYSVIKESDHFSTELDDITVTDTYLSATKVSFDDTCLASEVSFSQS
# protocol.notes: qHTS for Small Molecule Agonists and Allosteric Enhancers of Human TRH Receptor: Primary Screen for Enhancers; also: 0% is about no effect
# test.context: TRHR cells, fluo-8 calcium fluorescence, EC20 TRH enhancement; at 2 µM; active compounds read high
The campaign covered roughly 360,000 compounds. About 2,400 (0.67%) were called active. The sample holds actives, similar compounds and a random draw of the others, so the mix is not that of the screen.
Catalogue of molecules with associated enhancement
Enter your answer as a number in %; do not include the unit.

Worked set:
[
  {
    "molecule": "CC1CCN(C(=O)COC(=O)c2cc(=O)[nH]c3ccccc23)CC1",
    "target.system": "Thyrotropin-releasing hormone receptor (Homo sapiens) (UniProt P34981)",
    "enhancement (%)": -7.78
  },
  {
    "molecule": "CCCCN(C(=O)c1ccc2ccccc2c1)c1c(N)n(CCCC)c(=O)[nH]c1=O",
    "target.system": "Thyrotropin-releasing hormone receptor (Homo sapiens) (UniProt P34981)",
    "enhancement (%)": -1.43
  },
  {
    "molecule": "Cc1ccc(Oc2c(C(F)(F)F)oc3c(CN4CCCCC4)c(O)ccc3c2=O)cc1",
    "target.system": "Thyrotropin-releasing hormone receptor (Homo sapiens) (UniProt P34981)",
    "enhancement (%)": 0.578
  },
  {
    "molecule": "CN(Cc1ccccc1)c1ccc(-c2nc(-c3ccccc3)no2)cc1[N+](=O)[O-]",
    "target.system": "Thyrotropin-releasing hormone receptor (Homo sapiens) (UniProt P34981)",
    "enhancement (%)": 5.53
  },
  {
    "molecule": "CCc1ccc(NC(=O)c2cc(S(=O)(=O)NC3CCCCCC3)ccc2F)cc1",
    "target.system": "Thyrotropin-releasing hormone receptor (Homo sapiens) (UniProt P34981)",
    "enhancement (%)": 3.53
  }
]

Dear colleague, please send me the reported enhancement for `Cc1nn(Cc2ccc(F)cc2)c(C)c1NC(=O)c1cc(CC(C)C)on1` when you can.
-1.79

For the molecule CCN(CC)c1ccc(C2C(C(N)=O)=C(C)Nc3nc(SCc4ccccc4)nn32)cc1 (configuration not stated) , give its reported enhancement.
3.72

Give the measured enhancement for `O=C(Nc1nnc(-c2ccc(Cl)cc2)o1)c1ccccc1Br`
1.12

----------
A collection of compounds and their measured enhancement
# target.system: Thyrotropin-releasing hormone receptor (Homo sapiens) (UniProt P34981)
# protocol.notes: qHTS for Small Molecule Agonists and Allosteric Enhancers of Human TRH Receptor: Primary Screen for Enhancers; also: 0% is about no effect
# test.context: TRHR cells, fluo-8 calcium fluorescence, EC20 TRH enhancement; at 2 µM; active compounds read high
Hit rate of the full screen: of about 360,000 compounds, about 2,400 (0.67%) were called active. The sample holds actives, similar compounds and a random draw of the others, so the mix is not that of the screen.
Field format: number, assumed %, no unit text.

Worked cases, enhancement given:
[
  {
    "compound": "CCc1ccc(/C=C2\\SC(N3CCOCC3)=NC2=O)cc1",
    "enhancement (%)": 38.7
  },
  {
    "compound": "COc1ccccc1C(=O)NCC(=O)NCCSc1ccc(Br)cc1",
    "enhancement (%)": 0.828
  },
  {
    "compound": "CCC(=O)Nc1ccccc1C(=O)N1CCN(Cc2ccccc2)CC1",
    "enhancement (%)": 8.38
  },
  {
    "compound": "Cc1ccc(NC(=O)CSc2nc3c([nH]c4ccccc43)c(=O)n2-c2ccccc2)c(C)c1",
    "enhancement (%)": 39.6
  }
]

Tell me its enhancement on Thyrotropin-releasing hormone receptor (Homo sapiens) (UniProt P34981): `COc1cc(C(=O)NCC(=O)NCCSc2ccc(Br)cc2)cc(OC)c1OC`
1.93

Would you please give the reported enhancement of COc1ccccc1C(=O)NCc1nnc(SC(C)C(=O)Nc2nccs2)n1C (stereo not given) with Thyrotropin-releasing hormone receptor (Homo sapiens) (UniProt P34981)?
-2.08

Where do these numbers come from? They come from PubChem BioAssay AID493056.
